- TARGET_OR_SYSTEM: T1, mouse GLP-1 receptor (mouse, UniProt O35659 22-463)
- T1 sequence (looked up): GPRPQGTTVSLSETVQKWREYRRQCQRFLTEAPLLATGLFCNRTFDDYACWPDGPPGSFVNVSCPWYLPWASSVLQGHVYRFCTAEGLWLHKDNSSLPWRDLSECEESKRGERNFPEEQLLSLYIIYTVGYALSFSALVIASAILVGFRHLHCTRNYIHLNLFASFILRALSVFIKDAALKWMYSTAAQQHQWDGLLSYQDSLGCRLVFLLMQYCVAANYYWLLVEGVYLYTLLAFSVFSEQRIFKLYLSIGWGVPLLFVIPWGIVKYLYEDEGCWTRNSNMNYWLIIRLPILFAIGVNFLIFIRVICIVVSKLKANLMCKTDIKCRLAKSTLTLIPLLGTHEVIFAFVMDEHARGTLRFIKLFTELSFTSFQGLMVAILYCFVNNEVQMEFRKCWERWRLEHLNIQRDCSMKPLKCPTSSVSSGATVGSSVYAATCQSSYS
- PROCEDURE_SUMMARY: cell-based or functional assay
Param threshold (0.8 nM) applies to cAMP EC50; output rule met when value >= threshold, rule not met when value < threshold.

// known answers, use as guide
IP268 (Fc fusion) YSEGTFTSDYSKLLEEEAVRLFIEWLVKGPGGGGGSGGGGSGGGGSGGGGSATHTCPPC | rule not met
IP372 (Fc fusion) YSEGTFTSDYSIYLDEEAVRLFIEWLLAGGGGGGGSGGGGSGGGGSGGGGSACPPC | rule met
IP258 (Fc fusion) YSEGTFTSDYSKLLDEEAVRLFIEWLVKGPGGGGGSGGGGSGGGGSGGGGSATHTCPPCPAPEF | rule met

Now consider the entry below.
Say whether IP222 (Fc fusion) YSEGTFTSDYSKLLEEEAVRLFIEWLKNGGPSSGAPPPSAAAGGSGSTASSGSGSATGGGGAATHTCPPCPAPEF shows cAMP EC50 of 0.8 nM or more.
rule not met
